assay: Retention on reversed-phase C4 HPLC column as indication of tissue penetration; type: physicochemical; conditions: ACE C4 150 × 4.6 mm, MeOH-H2O 10:90, 0.5 mL/min, 40 °C
Exercise: state measured Retention time (tr) in column C4 for each of the molecules provided.
Answers are plain numbers, in min.

Batch lookup, Retention time (tr) in column C4 per entry.
1. CCCCCCCCCc1ccc(OCCOCCOCCOCCOCCOCCOCCOCCOCCO)cc1
2. Cc1ncc([N+](=O)[O-])n1CCO
3. Clc1ccc(COC(Cn2ccnc2)c2ccc(Cl)cc2Cl)c(Cl)c1 (stereo not shown)
4. Clc1ccc(COC(Cn2ccnc2)c2ccc(Cl)cc2Cl)cc1 (stereo not shown)

1: 39.48; 2: 3.93; 3: 10.2; 4: 9.94

====

test: Franz diffusion cell in vitro permeability, hybrid PVDF-cellulose membrane; details: pH 7.4
Readout kind: Papp at 8 h
Give your result as the value with the unit written after it.

Supply measured Papp at 8 h of Cc1ncc([N+](=O)[O-])n1CCO in your reply.
1.11 ×10⁻⁶ cm/s

====

experiment: Franz diffusion cell in vitro permeability, IPM-impregnated cellulose membrane; details: pH 7.4
Readout kind: Papp at 8 h (×10⁻⁶ cm/s)
One number for each entry, in ×10⁻⁶ cm/s.

> print(dat)
                                   molecule  value.observed
1  Clc1ccc(COC(Cn2ccnc2)c2ccc(Cl)cc2Cl)cc1 (centres unmarked)          0.0389

As a next step, examine the molecule that follows.
Supply recorded Papp at 8 h for Cc1ncc([N+](=O)[O-])n1CCO here.
3.89

====

assay: Franz diffusion cell in vitro permeability, PVDF membrane; conditions: after 8 h; mean ± SD (n = 3)
I'd appreciate it if you could supply Cumulative Amount Permeated, PVDF (Hydrophobic) values for the items below.
Numbers only, in μg/cm^2.

# annotated cases, reported Cumulative Amount Permeated, PVDF (Hydrophobic) shown
> print(dat)
                                   compound  value.unit  value.observed
1  Clc1ccc(COC(Cn2ccnc2)c2ccc(Cl)cc2Cl)c(Cl)c1 (stereo not shown) [MICO, miconazole]     μg/cm^2            33.4
2  Clc1ccc(COC(Cn2ccnc2)c2ccc(Cl)cc2Cl)cc1 (stereo not shown) [ECO, econazole]     μg/cm^2            15.3
3  Cc1ncc([N+](=O)[O-])n1CCO [METRO, metronidazole]     μg/cm^2          2008.4

Next:
Note Cumulative Amount Permeated, PVDF (Hydrophobic) for the compound shown: CCCCCCCCCc1ccc(OCCOCCOCCOCCOCCOCCOCCOCCOCCO)cc1 [NONO, nonoxynol-9]
1752.2

====

experiment: Franz diffusion cell in vitro permeability, PVDF membrane; conditions: rank among the six drugs by cumulative amount after 8 h
Kindly supply the reported permeation order of the substance, PVDF (Hydrophobic) values for the records listed here.
Answers are plain numbers, in th.

> print(dat)
                                   compound  value.unit  value.observed
1  Clc1ccc(COC(Cn2ccnc2)c2ccc(Cl)cc2Cl)c(Cl)c1 (stereo not shown)          th               5

Provide permeation order of the substance, PVDF (Hydrophobic) value for the following compound: Clc1ccc(COC(Cn2ccnc2)c2ccc(Cl)cc2Cl)cc1 (stereo not shown)
6

====

test: in vitro; conditions: cow, 8 h
Readout kind: Acceptor's Mass (mg)
Answers are plain numbers, in mg.

> print(dat)
                                   compound  value.unit  value.observed
1  Clc1ccc(COC(Cn2ccnc2)c2ccc(Cl)cc2Cl)c(Cl)c1 (stereo not shown)          mg               0

Kindly consider the entry below.
Supply reported Acceptor's Mass belonging to this compound: Clc1ccc(COC(Cn2ccnc2)c2ccc(Cl)cc2Cl)cc1 (stereo not shown)
0

====

Exercise: for every item that follows, state its recorded Papp at 8 h.
Test: Franz diffusion cell in vitro permeability, cellulose membrane
Conditions: pH 7.4
Experimental: There are many membranes available on the market that are grouped as cellulosic and polymeric. Taking into account those that are more convenient and economical, two synthetic membranes and their combinations were used. Synthetic PVDF (polyvinylidene difluoride) and cellulose acetate (Table S2) membranes were pre-treated according to the supplier’s instructions. […] The in vitro permeability profile of each compound was evaluated using the Franz diffusion cell setup (PermeGear, Hellertown, PA, USA). […]
Answers are plain numbers, in ×10⁻⁶ cm/s.

> print(dat)
                    compound  readout.kind  value.unit  value.observed
1  Cc1ncc([N+](=O)[O-])n1CCO   Papp at 8 h  ×10⁻⁶ cm/s            6.39

We next turn to a different compound, shown below.
Identify measured Papp at 8 h corresponding to Clc1ccc(COC(Cn2ccnc2)c2ccc(Cl)cc2Cl)cc1 (centres unmarked)
0.239

====

experiment: in vitro; conditions: cow, 8 h
Readout kind: Tissue Extraction

As a guide, the following entries are already answered.
> print(dat)
                                   compound    value.observed
1  Clc1ccc(COC(Cn2ccnc2)c2ccc(Cl)cc2Cl)cc1 (stereo not shown) [ECO, econazole]  0.01 (±0.001) mg
2  CCN(CC)CC(=O)Nc1c(C)cccc1C [LIDO, lidocaine]    0.5 (±0.09) mg

Report Tissue Extraction for each item below.
1. Cc1ncc([N+](=O)[O-])n1CCO [METRO, metronidazole]
2. Clc1ccc(COC(Cn2ccnc2)c2ccc(Cl)cc2Cl)c(Cl)c1 (stereo not shown) [MICO, miconazole]

1. 1.4 (±0.2) mg
2. 0 mg

====

Kindly supply the reported Final Mass Donor values for the records listed here.
test: in vitro; settings: cow, 8 h

Past entries and their recorded results:
> print(dat)
                                   compound    value.observed
1  Clc1ccc(COC(Cn2ccnc2)c2ccc(Cl)cc2Cl)c(Cl)c1 (stereo not shown)   0.26 (±0.02) mg
2                 Cc1ncc([N+](=O)[O-])n1CCO  0.01 (±0.001) mg
3  Clc1ccc(COC(Cn2ccnc2)c2ccc(Cl)cc2Cl)cc1 (stereo not shown)    0.2 (±0.01) mg

--- query ---
Return the recorded Final Mass Donor value; entry: CCN(CC)CC(=O)Nc1c(C)cccc1C
0.9 (±0.1) mg

====

test: in vitro; details: cow
Readout kind: Papp at 8 h, 10 mg/mL

Output measured Papp at 8 h, 10 mg/mL for this item: Cc1ncc([N+](=O)[O-])n1CCO
12.8 ×10⁻⁶ cm/s

====

For each entry below, report its Papp (experimental, in vitro) value.
experiment: Franz diffusion cell in vitro permeability, cellulose membrane; settings: cellulose membrane; Table 6, compared with PLS prediction
Numbers only, in cm/h.

Sample records with Papp (experimental, in vitro):
> print(dat)
                                   compound  value.unit  value.observed
1  Clc1ccc(COC(Cn2ccnc2)c2ccc(Cl)cc2Cl)cc1 (stereo not shown)        cm/h         0.00086
2  CCCCCCCCCc1ccc(OCCOCCOCCOCCOCCOCCOCCOCCOCCO)cc1        cm/h          0.0002
3  Clc1ccc(COC(Cn2ccnc2)c2ccc(Cl)cc2Cl)c(Cl)c1 (stereo not shown)        cm/h               0

Now consider the entry below.
Supply Papp (experimental, in vitro) value. Item: Cc1ncc([N+](=O)[O-])n1CCO
0.023

====

assay: Franz diffusion cell in vitro permeability, hybrid IPM-cellulose membrane; conditions: pH 7.4
Readout kind: Papp at 8 h
Reply with the number and its unit after it.

Quickly give me recorded Papp at 8 h for Cc1ncc([N+](=O)[O-])n1CCO
0.556 ×10⁻⁶ cm/s
